# System: MYB mRNA
# ASSAY DETAILS: RT-qPCR splicing assay, MYB canonical junction (CJ) and alternative junction (AJ) mRNA
# Type: cell-based, human
# STATED CONDITIONS: Homo sapiens; canonical junction qPCR panel, Table 5; read-out: MYB (decrease in CJ mRNA levels, IC50)
MEASURED METRIC: IC50

Before answering, review these 3 worked examples.
| COMPOUND | MEASURED METRIC | RECORDED RESULT |
| --- | --- | --- |
| Cn1cc2cc(-c3ccc4c(=O)n(C56CCC(N)(CC5)C6)ccc4n3)c(O)cc2n1 | IC50 | < 100 nM |
| Cc1cn2cc(-c3ccc4c(=O)n([C@@H]5CCNC6(CC6)C5)ccc4n3)cc(F)c2n1 | IC50 | 100 to 1000 nM |
| Cc1cn2nc(-c3ccc4c(=O)n([C@H]5CCNC5)ccc4n3)cc(C)c2n1 | IC50 | 100 to 1000 nM |

[ask] Tell me its IC50 given Cc1c(O)c(-c2ncc3c(=O)n([C@H]4CC[C@@H](N(C)C)CC4)ccc3n2)cc2cn(C)nc12 as the entry.
[reply] 100 to 1000 nM

[ask] Tell me its IC50 given Cc1cn2nc(-c3ccc4c(=O)n(C5CCN(CCO)C6(CC6)C5)ncc4n3)cc(C)c2n1 (stereo not shown) as the entry.
[reply] 100 to 1000 nM

[ask] Tell me its IC50 given Cn1cc2cc(-c3ccc4c(=O)n(C5CCNC6(CC6)C5)ccc4n3)c(O)cc2n1 (stereo not shown) as the entry.
[reply] < 100 nM

[ask] Tell me its IC50 given Cc1cn2cc(-c3ccc4c(=O)n(C5CCNCC5)ccc4n3)nc(C)c2n1 as the entry.
[reply] > 10000 nM

[ask] Tell me its IC50 given Cc1cn2cc(-c3ccc4c(=O)n(C5CCNC5)ccc4n3)c(O)c(C)c2n1 (stereo not shown) as the entry.
[reply] > 10000 nM

[ask] Tell me its IC50 given Cc1c(O)c(-c2ncc3c(=O)n([C@H]4CCNC(C)(C)C4)ccc3n2)cc2cn(C)nc12 as the entry.
[reply] < 100 nM

[ask] Tell me its IC50 given Cc1c(O)c(-c2ncc3c(=O)n(C4CNC4)ccc3n2)cc2cn(C)nc12 as the entry.
[reply] 1000 to 10000 nM

[ask] Tell me its IC50 given Cc1c(O)c(-c2ncc3c(=O)n(N4CCNCC4)ccc3n2)cc2cn(C)nc12 as the entry.
[reply] 100 to 1000 nM

[ask] Tell me its IC50 given Cc1cn2cc(-c3nc(C)c4c(=O)n([C@H]5CCN[C@@H](C)C5)ccc4n3)cc(F)c2n1 as the entry.
[reply] < 100 nM

[ask] Tell me its IC50 given Cc1c(O)c(-c2ncc3c(=O)n([C@H]4C[C@H]5COC[C@@H](C4)N5)ccc3n2)cc2cn(C)nc12 as the entry.
[reply] 100 to 1000 nM

----------
Reported values of IC50 for individual entries
# Tested on: MYB mRNA
# ASSAY DETAILS: RT-qPCR splicing assay, MYB canonical junction (CJ) and alternative junction (AJ) mRNA
# Type: cell-based, human
# STATED CONDITIONS: Homo sapiens; decrease in MYB canonical junction (CJ) mRNA, RT-qPCR; read-out: MYB CJ IC50

Before answering, review these 5 worked examples.
| COMPOUND | RECORDED RESULT |
| --- | --- |
| Cc1cn2cc(-c3cc(F)c4c(=O)n([C@H]5CC[C@H](N(C)C)CC5)ccc4c3)cc(F)c2n1 [Compound 654] | < 0.1 µM |
| Cc1cn2nc(-c3ccc4c(c3)CCN(C3CCNC(C)(C)C3)C4=O)cc(C)c2n1 (centres unmarked) [Compound 267] | < 0.1 µM |
| Cc1cn2cc(-c3cc(F)c4c(=O)n(C5CCNCC5)cnc4c3)nc2c(C)n1 [Compound 319] | 1 to 10 µM |
| Cc1cn2cc(-c3ccc4c(=O)n(C5CCNCC5)ccc4c3)cc(C#N)c2n1 [Compound 560] | 0.1 to 1 µM |
| Cc1cn2cc(-c3cc(F)c4c(=O)n([C@@H]5CNC[C@@H]5C)ccc4c3)cc(F)c2n1 [Compound 653] | 1 to 10 µM |

[ask] Tell me its IC50 given Cc1cn2nc(-c3ccc4c(=O)n([C@@H]5CCNC6(CC6)C5)ncc4n3)cc2c(C)n1 [Compound 1548] as the entry.
[reply] 0.1 to 1 µM

[ask] Tell me its IC50 given COC(=O)Cc1cc(-c2ccc3c(=O)n(C4CCNCC4)ccc3c2)nn2cc(C)nc12 [Compound 527] as the entry.
[reply] 0.1 to 1 µM

[ask] Tell me its IC50 given Cc1cn2nc(-c3ccc4c(=O)n(C5CCNCC5)ccc4c3)cc(C(N)=O)c2n1 [Compound 523] as the entry.
[reply] 1 to 10 µM

[ask] Tell me its IC50 given Cc1c(O)c(-c2ncc3c(=O)n([C@@H]4CC[C@H](N)C4)ccc3n2)cc2cn(C)nc12 [Compound 1477] as the entry.
[reply] < 0.1 µM

[ask] Tell me its IC50 given Cc1cn2nc(-c3ccc4c(c3)CCN(C3CCNCC3)C4=O)cc2c(C)n1 [Compound 223] as the entry.
[reply] 0.1 to 1 µM

[ask] Tell me its IC50 given Cc1c(O)c(-c2ncc3c(=O)n([C@H]4C[C@@H](N)C4)ccc3n2)cc2cn(C)nc12 [Compound 1431] as the entry.
[reply] 1 to 10 µM

meta.source: patent US20250332173A1
